- PROTOCOL_TEXT: Plasma protein binding in human at 1 uM after 6 hrs by equilibrium dialysis method
- Type: ADME, cell-free
- CONDITION: read-out: PPB (converted)
MEASUREMENT_LABEL: fraction unbound at 6 h, 1 µM

{"SMILES_DATA": "Cc1cc(C)nc(N2C[C@H]3CN(C(=O)c4ccc(F)cc4-n4nccn4)C[C@H]3C2)n1", "EXPERIMENTAL_RESULT": 0.075}
{"SMILES_DATA": "Cc1cc(C)nc(N2C[C@H]3CN(C(=O)c4cccc(F)c4-n4nccn4)C[C@H]3C2)n1", "EXPERIMENTAL_RESULT": 0.095}

====

- PROTOCOL_TEXT: Chemical stability of the compound in pH 10 carbonate buffer assessed as compound remaining at room temperature after 4 weeks by HPLC analysis
- Assay type: physicochemical
- CONDITION: read-out: Stability
MEASUREMENT_LABEL: remaining at 672 h (%)
Number only, in %; omit the unit.

QUERY: State its remaining at 672 h for this molecule: Cc1cc(C)nc(N2C[C@H]3CN(C(=O)c4c(F)cccc4-n4nccn4)C[C@H]3C2)n1
RESULT: 102

====

- PROTOCOL_TEXT: Chemical stability of the compound in pH 2 phosphate buffer assessed as compound remaining at 60 degC after 4 weeks by HPLC analysis
- Assay type: physicochemical
- CONDITION: read-out: Stability
MEASUREMENT_LABEL: remaining at 672 h (%)
A number alone suffices; assume %.

QUERY: Quote remaining at 672 h reported for Cc1cc(C)nc(N2C[C@H]3CN(C(=O)c4c(F)cccc4-n4nccn4)C[C@H]3C2)n1 please.
RESULT: 101

====

- PROTOCOL_TEXT: Chemical stability of the compound in pH 4 acetate buffer assessed as compound remaining at room temperature after 4 weeks by HPLC analysis
- Format: physicochemical
- CONDITION: read-out: Stability
MEASUREMENT_LABEL: remaining at 672 h (%)
Numbers only; they are read as %.

QUERY: Note down remaining at 672 h recorded for Cc1cc(C)nc(N2C[C@H]3CN(C(=O)c4c(F)cccc4-n4nccn4)C[C@H]3C2)n1
RESULT: 101

====

# UniProt P56719: pKi values follow
# Sequence (P56719 whole entry): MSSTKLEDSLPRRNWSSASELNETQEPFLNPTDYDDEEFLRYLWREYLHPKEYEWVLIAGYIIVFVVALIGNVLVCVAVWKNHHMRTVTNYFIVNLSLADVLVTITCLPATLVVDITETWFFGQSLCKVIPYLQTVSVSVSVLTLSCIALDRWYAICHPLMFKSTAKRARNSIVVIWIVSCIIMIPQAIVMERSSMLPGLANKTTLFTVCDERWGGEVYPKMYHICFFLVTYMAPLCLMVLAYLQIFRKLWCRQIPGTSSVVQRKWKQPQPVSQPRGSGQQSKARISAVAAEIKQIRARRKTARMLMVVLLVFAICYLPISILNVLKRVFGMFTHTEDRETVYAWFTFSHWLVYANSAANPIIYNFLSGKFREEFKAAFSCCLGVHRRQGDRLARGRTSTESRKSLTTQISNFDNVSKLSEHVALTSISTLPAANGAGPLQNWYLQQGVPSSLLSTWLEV
pKi: −log10 of the molar value.
MEASUREMENT_LABEL: pKi

Examples from the recorded data:
{"SMILES_DATA": "Cc1cc(C)nc(N2C[C@H]3CN(C(=O)c4ccc(F)cc4-n4nccn4)C[C@H]3C2)n1", "MEASUREMENT_LABEL": "pKi", "EXPERIMENTAL_RESULT": 7.85}
{"SMILES_DATA": "Cc1cc(C)nc(N2C[C@H]3CN(C(=O)c4ccccc4-n4nccn4)C[C@H]3C2)n1", "MEASUREMENT_LABEL": "pKi", "EXPERIMENTAL_RESULT": 8.70}
{"SMILES_DATA": "Cc1cc(C)nc(N2C[C@H]3CN(C(=O)c4ccccc4-c4cccs4)C[C@H]3C2)n1", "MEASUREMENT_LABEL": "pKi", "EXPERIMENTAL_RESULT": 8.15}

1. COc1ccc(-n2nccn2)c(C(=O)N2C[C@@H]3CN(c4nc(C)cc(C)n4)C[C@@H]3C2)c1
2. Cc1cc(C)nc(N2C[C@H]3CN(C(=O)c4c(C)cccc4-n4nccn4)C[C@H]3C2)n1
QUERY: // returns 1 or 2 , whichever has the lower pKi Write the label of whichever entry you select.
RESULT: 1
